Biological target: T1, MepR(A103S) (Staphylococcus aureus, UniProt Q5Y812 1-139, A103S)
T1 sequence: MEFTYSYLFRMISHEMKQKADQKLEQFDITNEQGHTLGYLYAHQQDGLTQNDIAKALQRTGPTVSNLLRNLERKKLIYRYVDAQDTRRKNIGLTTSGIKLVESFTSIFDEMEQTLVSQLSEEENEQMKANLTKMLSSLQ
Assay: ITC
Measured attribute: pKd
# pKd: negative log10 of molar concentration; output just the value

Prompt: Specify reported pKd for the binder shown: mepR operator, palindromic 26-mer (dsDNA) DNA 1: TATTTAGTTAGATATCTAACTAAATA DNA 2: TATTTAGTTAGATATCTAACTAAATA
Completion: 7.37
